target: recombinant human GR (Homo sapiens, UniProt P04150); assay: Human Glucocorticoid Receptor (GR) Assay, fluorescence polarization (GRhuFL_FP_v2, GR-binders)
Sequence (P04150 whole entry): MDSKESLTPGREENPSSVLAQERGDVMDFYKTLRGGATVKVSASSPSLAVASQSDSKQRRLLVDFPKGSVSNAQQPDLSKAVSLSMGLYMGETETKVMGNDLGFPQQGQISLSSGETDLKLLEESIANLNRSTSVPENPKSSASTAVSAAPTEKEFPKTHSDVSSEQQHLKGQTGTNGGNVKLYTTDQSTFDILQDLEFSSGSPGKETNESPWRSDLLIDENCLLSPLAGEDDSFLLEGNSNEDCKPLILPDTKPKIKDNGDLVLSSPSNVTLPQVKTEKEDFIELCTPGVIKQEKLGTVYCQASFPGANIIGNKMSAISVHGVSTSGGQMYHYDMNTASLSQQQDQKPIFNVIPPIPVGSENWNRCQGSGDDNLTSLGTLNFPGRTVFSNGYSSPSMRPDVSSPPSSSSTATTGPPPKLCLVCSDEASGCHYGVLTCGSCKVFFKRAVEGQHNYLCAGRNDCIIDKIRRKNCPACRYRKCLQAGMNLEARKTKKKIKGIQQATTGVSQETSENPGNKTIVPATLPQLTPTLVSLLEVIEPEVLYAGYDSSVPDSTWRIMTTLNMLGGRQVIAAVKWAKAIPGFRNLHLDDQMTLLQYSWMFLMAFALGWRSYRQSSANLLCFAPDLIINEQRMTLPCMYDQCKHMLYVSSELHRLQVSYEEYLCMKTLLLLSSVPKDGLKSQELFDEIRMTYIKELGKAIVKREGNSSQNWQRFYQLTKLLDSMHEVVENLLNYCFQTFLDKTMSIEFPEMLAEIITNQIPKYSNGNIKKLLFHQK
quantity.name: IC50 (nM)

Field: example entries. Status: answers known.
1) Cc1nn([C@H]2CCOC2)c(C)c1S(=O)(=O)N[C@@H](C)COc1cccc2c1cnn2-c1ccc(F)cc1 ... 36
2) Cc1cc(C)c(S(=O)(=O)N[C@H](CNc2cccc3c2cnn3-c2ccc(F)cc2)C(C)C)c(C)c1 ... 8
3) Cc1cc(C)c(S(=O)(=O)N[C@@H](C)CNc2cccc3c2cnn3-c2cccc(OC(F)(F)F)c2)c(C)c1 ... 15
4) Cc1nn(C2CCCC2)c(C)c1S(=O)(=O)N[C@@H](C)CNc1cccc2c1cnn2-c1ccc(F)nc1 ... 3
5) Cc1cc(C)c(S(=O)(=O)N[C@@H](C)CCc2cccc3c2cnn3-c2ccc(F)cc2)c(C)c1 ... 4.6
6) Cc1cc(C)c(S(=O)(=O)N[C@@H](C)CNc2cccc3c2cnn3-c2ccccc2)c(C)c1 ... 3.5
7) Cc1cc(C)c(S(=O)(=O)NC[C@H](C)Nc2cccc3c2cnn3-c2ccc(F)cc2)c(C)c1 ... 6.4
8) Cc1cc(C)c(S(=O)(=O)NC(C)CS(=O)(=O)c2cccc3c2cnn3-c2ccc(F)cc2)c(C)c1 (stereo not drawn) ... 790
9) Cc1cc(C)c(S(=O)(=O)N[C@@H](C)CNc2c(F)ccc3c2cnn3-c2ccc(F)cc2)c(C)c1 ... 4.2
10) Cc1ccc(-n2ncc3c(NC[C@H](C)NS(=O)(=O)c4c(C)cc(C)cc4C)cccc32)cc1 ... 3.9

a: Cc1cc(C)c(S(=O)(=O)N[C@@H](C)CNc2cccc3c2cnn3-c2ccc(F)nc2)c(C)c1
b: Cc1cc(C)c(S(=O)(=O)N[C@@H](C)CNc2cccc3c2cnn3-c2ccncc2)c(C)c1
Consider a and b . Which of these has its IC50 at a higher number? Reply with the label of the item you choose. b
(b: 4.3 nM, a: 2.3 nM)

a: Cc1cc(C)c(S(=O)(=O)N[C@@H](C)CNc2cccc3c2cnn3C2CCCC2)c(C)c1
b: Cc1nn(C(C)(C)C)c(C)c1S(=O)(=O)N[C@@H](C)COc1cccc2c1cnn2-c1ccc(F)cc1
Hi there! Just curious which has the higher IC50 between a and b . Mark your selection by writing its label. b

###

biological target: recombinant human GR (Homo sapiens); assay: Human Glucocorticoid Receptor (GR) Assay, fluorescence polarization (GRhuFL_FP_v2, GR-binders)
quantity.name: IC50 (µM)

1) COc1ccc(-n2ncc3c(NC[C@H](C)NS(=O)(=O)c4c(C)cc(C)cc4C)cccc32)cc1 ... 0.0054
2) Cc1ccc(-n2ncc3c(NC[C@H](C)NS(=O)(=O)c4ccccc4)cccc32)cc1 ... 0.02
3) COc1ncc(-n2ncc3c(NC[C@H](C)NS(=O)(=O)c4c(C)nn(C5CCCC5)c4C)cccc32)cn1 ... 0.023
4) Cc1cc(C)c(S(=O)(=O)NCC(C)(C)Nc2cccc3c2cnn3-c2ccc(F)cc2)c(C)c1 ... 0.024
5) Cc1cc(C)c(S(=O)(=O)N[C@@H](C)CNc2cccc3c2cnn3-c2cccc(C(F)(F)F)c2)c(C)c1 ... 0.26

P: Cc1nn(C(C)(C)C)c(C)c1S(=O)(=O)N[C@@H](C)COc1cccc2c1cnn2-c1cccnc1
Q: Cc1cc(C)c(S(=O)(=O)NC(C)CSc2cccc3c2cnn3-c2ccc(F)cc2)c(C)c1 (stereo not shown)
# query: argmin of IC50 over P and Q Record your answer as the label of the chosen record. Q
(Q: 0.0076 µM, P: 0.08 µM)
